Attribution: patent US9428519B2

test system: NB4 (acute promyelocytic leukemia, AML); test: MTT growth inhibition of leukemia cells, 72 h; format: cell-based, human; conditions: Homo sapiens, MTT
// boundary case: IC50 equal to 6 ng/mL maps to not satisfied; strictly smaller maps to satisfied

Check out these entries, answers already filled in.
COMPOUND	SUBJECT_OF_TEST	CLASS_NAME
COC(=O)C[C@](O)(CCCC(C)(C)OC(=O)Cc1ccccc1)C(=O)O[C@@H]1C(OC)=C[C@]23CCCN2CCc2cc4c(cc2[C@H]13)OCO4 [BS-HH-074]	NB4 (acute promyelocytic leukemia, AML)	satisfied
COC(=O)C[C@](O)(CCCC(C)(C)OC(=O)c1cccnc1Cl)C(=O)O[C@@H]1C(OC)=C[C@]23CCCN2CCc2cc4c(cc2[C@H]13)OCO4 [BS-HH-066]	NB4 (acute promyelocytic leukemia, AML)	satisfied
COC(=O)C[C@](O)(CCCC(C)(C)OC(=O)C1CCCC1)C(=O)O[C@@H]1C(OC)=C[C@]23CCCN2CCc2cc4c(cc2[C@H]13)OCO4 [BS-HH-077]	NB4 (acute promyelocytic leukemia, AML)	not satisfied
COC(=O)C[C@](O)(CCCC(C)(C)OC(=O)c1scnc1C)C(=O)O[C@@H]1C(OC)=C[C@]23CCCN2CCc2cc4c(cc2[C@H]13)OCO4 [BS-HH-0721]	NB4 (acute promyelocytic leukemia, AML)	satisfied

Exam item: Here's an entry: COC(=O)C[C@](O)(CCCC(C)(C)OC(C)=O)C(=O)O[C@@H]1C(OC)=C[C@]23CCCN2CCc2cc4c(cc2[C@H]13)OCO4 [BS-HH-002, 6-acetylhomoharringtonine] . Is its IC50 below 6 ng/mL?
Marked response: satisfied

Exam item: # TODO verify IC50 < 6 ng/mL strictly for this compound: COC(=O)C[C@@](CCCC(C)(C)OC(=O)c1cccs1)(OC(=O)c1cccs1)C(=O)O[C@@H]1C(OC)=C[C@]23CCCN2CCc2cc4c(cc2[C@H]13)OCO4 [BS-HH-0572]
Marked response: not satisfied

Exam item: hey, is IC50 for COC(=O)C[C@](O)(CCCC(C)(C)OC(=O)C1CC1)C(=O)O[C@@H]1C(OC)=C[C@]23CCCN2CCc2cc4c(cc2[C@H]13)OCO4 [BS-HH-062] lower than 6 ng/mL or not?
Marked response: satisfied

Exam item: Decide: IC50 of COC(=O)C[C@@](CCCC(C)(C)OC(C)=O)(OC(C)=O)C(=O)O[C@@H]1C(OC)=C[C@]23CCCN2CCc2cc4c(cc2[C@H]13)OCO4 [BS-HH-001, 2,6-diacetylhomoharringtonine] strictly below 6 ng/mL?
Marked response: not satisfied

---

As shown below, each of these compounds has a reported IC90 NB4 value.
tested on: NB4 (acute promyelocytic leukemia, AML); test: MTT growth inhibition of leukemia cells, 72 h; type: cell-based, human; conditions: MTT
# output: bare number, implied unit µg/mL

Exam item: // lookup IC90 NB4 for COC(=O)C[C@](O)(CCCC(C)(C)OC(=O)c1cnoc1C)C(=O)O[C@@H]1C(OC)=C[C@]23CCCN2CCc2cc4c(cc2[C@H]13)OCO4 [BS-HH-061]
Marked response: 0.14

Exam item: Which value of IC90 NB4 has been reported for COC(=O)C[C@@](CCCC(C)(C)OC(=O)/C=C/c1ccco1)(OC(=O)/C=C/c1ccco1)C(=O)O[C@@H]1C(OC)=C[C@]23CCCN2CCc2cc4c(cc2[C@H]13)OCO4 [BS-HH-0022] in the records?
Marked response: 0.25

Exam item: Fill in the blank: the reported IC90 NB4 of COC(=O)C[C@@](CCCC(C)(C)OC(=O)c1scnc1C)(OC(=O)c1scnc1C)C(=O)O[C@@H]1C(OC)=C[C@]23CCCN2CCc2cc4c(cc2[C@H]13)OCO4 [BS-HH-0722] is ____.
Marked response: 0.49

Exam item: Fill blank: measured IC90 NB4 of the compound COC(=O)C[C@](O)(CCCC(C)(C)OC(=O)C1CCCCC1)C(=O)O[C@@H]1C(OC)=C[C@]23CCCN2CCc2cc4c(cc2[C@H]13)OCO4 [BS-HH-076] is ____.
Marked response: 0.022

Exam item: Would you mind telling me what IC90 NB4 value was observed for COC(=O)C[C@@](CCCC(C)(C)OC(=O)c1ccccc1)(OC(=O)c1ccccc1)C(=O)O[C@@H]1C(OC)=C[C@]23CCCN2CCc2cc4c(cc2[C@H]13)OCO4 [BS-HH-0732] ?
Marked response: 2.47
